Observed IC50 values for Aldo-keto reductase family 1 member B1 (Rattus norvegicus, UniProt P07943) are listed in what follows.
quantity.name: IC50 (nM)

line.notation: [O-][n+]1onc2cc(OCc3ccc4ccccc4c3)ccc21
units.of.measure: nM
IC50: 1430

I: [O-][n+]1onc2cc(OCc3ccc(Cl)cc3)ccc21
II: [O-][n+]1onc2cc(OCc3nc4ccccc4s3)ccc21
III: [O-][n+]1onc2cc(OCc3ccc(Br)cc3)ccc21
IV: [O-][n+]1onc2cc(OCc3ccc(C(F)(F)F)cc3)ccc21
Qu. Arrange these compounds by their IC50, starting with the largest number. Field: ranking. Enter the labels in the order requested.
Ans. III, IV, I, II

###

Tested on: Liver
Test: Induction of NO generation in Sprague-Dawley albino rat liver homogenate at 10^-4 M after 1 hr by Griess reaction
Assay type: functional, tissue-based
Active and inactive are the calls of the source. No cut-off for these calls is given here.
quantity.name: Activity

These recorded examples may help you get a feel for the data.
line.notation: COc1ccc(COc2ccc3c(c2)no[n+]3[O-])cc1
result: 2%
--
line.notation: [O-][n+]1onc2cc(OCc3ccc(F)cc3)ccc21
result: inactive
--
line.notation: [O-][n+]1onc2cc(OCCc3ccccc3)ccc21
result: 2%
--
line.notation: [O-][n+]1onc2cc(OCc3ccc4ccccc4c3)ccc21
result: 2%
--
line.notation: [O-][n+]1onc2cc(OCc3nc4ccccc4s3)ccc21
result: inactive
--
line.notation: O=[N+]([O-])c1cccc(COc2ccc3c(c2)no[n+]3[O-])c1
result: 2%
--
line.notation: Cc1ccc(COc2ccc3c(c2)no[n+]3[O-])cc1
result: 2%
--
line.notation: [O-][n+]1onc2cc(OCc3ccc(Br)cc3)ccc21
result: 2%

// next item, Activity requested
Qu. Could you tell me which Activity is on file for [O-][n+]1onc2cc(OCc3ccccc3)ccc21 ?
Ans. 2%

###

Activity: recorded values
System: Liver
Experiment: Induction of NO generation in Sprague-Dawley albino rat liver homogenate at 10^-4 M after 1 hr by Griess reaction
Assay type: functional, tissue-based

line.notation: [O-][n+]1onc2cc(OCc3ccc(C(F)(F)F)cc3)ccc21
measured.on: Liver
Activity: 2%

// next item, Activity requested
Qu. Could you tell me which Activity is on file for [O-][n+]1onc2cc(OCc3ccc(Cl)cc3)ccc21 ?
Ans. 2%
